Hello, the source for this data is a melting point compilation (Tetko et al.), in case you need it.

Recorded melting point, one value per entry.

[
  {
    "Molecule": "COc1ccc2[nH]cc(C(=O)O)c2c1",
    "melting point": "179 to 181 °C"
  },
  {
    "Molecule": "CC(Oc1ccc(F)cc1Cl)C(=O)O (configuration not stated)",
    "melting point": "72 to 74 °C"
  },
  {
    "Molecule": "CNCC(O)COc1ccccc1C(F)(F)F (configuration not stated)",
    "melting point": "124 to 127 °C"
  },
  {
    "Molecule": "O=Cc1ccccc1OCc1ccncc1",
    "melting point": "65 to 67 °C"
  },
  {
    "Molecule": "CCCCN(CC)c1ccc(C(=O)O)cc1",
    "melting point": "137 to 139 °C"
  },
  {
    "Molecule": "Brc1ccc(-c2cscn2)cc1",
    "melting point": "69 to 71 °C"
  },
  {
    "Molecule": "O=C(O)CNC(=O)NCc1ccc([N+](=O)[O-])cc1",
    "melting point": "166 to 168 °C"
  },
  {
    "Molecule": "CC1=NN(Cc2ccccc2)C(=O)C1",
    "melting point": "175 to 177 °C"
  },
  {
    "Molecule": "Nc1cc(F)c(Oc2ccc(F)cc2)cc1C(=O)O",
    "melting point": "194 to 196 °C"
  },
  {
    "Molecule": "CC1(C(=O)O)CCCN1C(=O)OCc1ccccc1 (configuration not stated)",
    "melting point": "119 to 121 °C"
  },
  {
    "Molecule": "Cc1noc2nc(-c3cccs3)cc(C(=O)O)c12",
    "melting point": "138 to 140 °C"
  },
  {
    "Molecule": "Cc1cc(C(=O)O)ccc1NC(=O)OC(C)(C)C",
    "melting point": "178 to 180 °C"
  },
  {
    "Molecule": "CC1(C)CCC(=CC(=O)O)CC1",
    "melting point": "88 to 90 °C"
  },
  {
    "Molecule": "CN(C)c1ccc(C(=N)N)c(Cl)c1",
    "melting point": "148 to 150 °C"
  },
  {
    "Molecule": "OC[C@@H](O)CNCCC(F)(F)F",
    "melting point": "34 to 36 °C"
  },
  {
    "Molecule": "COCC1(C)CNC(=O)C1 (configuration not stated)",
    "melting point": "62 to 64 °C"
  },
  {
    "Molecule": "CC(C)(C)Oc1ccc(C(=O)O)cn1",
    "melting point": "139 to 141 °C"
  }
]

###

Recorded melting point, one value per entry.
Readout Type: melting point

[
  {
    "Molecule": "Cc1c(C=O)c(=O)n(-c2ccccc2)n1C",
    "Meas Value": "162 to 165 °C"
  },
  {
    "Molecule": "O=C(O)C1CC(=O)N(c2ccccc2Cl)C1 (stereo not given)",
    "Meas Value": "141 to 143 °C"
  },
  {
    "Molecule": "NNc1ccc(S(=O)(=O)N2CCOCC2)cn1",
    "Meas Value": "179 to 181 °C"
  },
  {
    "Molecule": "O=C(O)C1CCCN(S(=O)(=O)c2ccc3ccccc3c2)C1 (stereo not given)",
    "Meas Value": "137 to 139 °C"
  },
  {
    "Molecule": "O=C(O)c1ccc([N+](=O)[O-])cc1Br",
    "Meas Value": "164 to 166 °C"
  }
]
